Measured values drawn from patent US11814447B2 for this set.

# study_system: T1, Human EphA2 (Ecto) (Human, UniProt P29317 24-537)
# T1 construct: extracellular domain
# T1 sequence (P29317 24-537): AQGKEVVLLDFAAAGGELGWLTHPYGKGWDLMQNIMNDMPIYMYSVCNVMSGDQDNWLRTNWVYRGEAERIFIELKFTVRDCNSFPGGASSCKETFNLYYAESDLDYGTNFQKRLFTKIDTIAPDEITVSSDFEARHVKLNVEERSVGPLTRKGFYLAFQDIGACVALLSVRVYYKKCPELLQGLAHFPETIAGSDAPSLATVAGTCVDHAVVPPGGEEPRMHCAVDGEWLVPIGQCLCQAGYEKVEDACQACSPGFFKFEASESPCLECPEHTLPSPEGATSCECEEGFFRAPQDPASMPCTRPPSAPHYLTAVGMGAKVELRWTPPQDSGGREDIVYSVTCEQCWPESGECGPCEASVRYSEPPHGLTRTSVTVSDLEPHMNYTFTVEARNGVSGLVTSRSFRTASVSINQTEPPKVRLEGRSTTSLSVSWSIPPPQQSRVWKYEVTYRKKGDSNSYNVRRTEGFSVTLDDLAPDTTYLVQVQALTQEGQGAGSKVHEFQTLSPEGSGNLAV
# protocol_text: FP competition, tracer Compound 18
Starred links: 1 amine or outer side, 2 acyl side, 3 side chain; linkers in the order of their positions; H or OH if unused. Positions of bridges follow the written chain, without caps; N, C: chain ends. Non-standard residues stand in square brackets, D forms with d. Primed or numbered codes have the meaning given here. No end group written: not given here. TBMB′ = 1,3,5-tris(bromomethyl)benzene, 1,3,5-tris(methylene)benzene core, three thioethers to Cys; TBMB = c1c(C[*:1])cc(C[*:3])cc1C[*:2]; Ac5c = NC1(C(=O)O)CCCC1; Sar = CNCC(=O)O
Provide the recorded Ki for the entries that follow.
Give bare numbers, in nM.

Solved cases (2 shown):
• ADVHCPWGAFWCPVNRPGCA (linker 5-12-19 via TBMB) [Bicycle Compound 152] = 1.8
• ADVHCPWAPFWCPVNRPGCA (linker 5-12-19 via TBMB) [Bicycle Compound 151] = 394

Next item in the queue.
GET /value?item= Ac-[Sar][Sar]A[dD]VTC[Ac5c]WGPFWCPVNRPGC (linker 7-14-21 via TBMB′) [Bicycle Compound 167] &field=Ki returns 138
